Tested on: β-galactosidase in CMV-LacZ C2C12 myoblasts
ASSAY REMARKS: CMV-LacZ secondary screen in C2C12 myoblasts (β-Gal stabilizing assay)
Assay type: cell-based, mouse
EXPERIMENTAL CONDITIONS: 20 uM; CMV-LacZ C2C12 myoblasts
REPORTED ENDPOINT: CMV-LACZ in Myoblasts (β-galactosidase activity relative to DMSO)
Give bare numbers.

[[record]]
molecule = "COc1ccc(CCNC(=O)Cn2nnc(C(=O)Nc3ccc(Br)cc3)c2N)cc1OC [MLS000912699-01]"
experimental_result = 0.8826


Provide each entry's CMV-LACZ in Myoblasts (β-galactosidase activity relative to DMSO) from the list below.
1. CC(=O)Nc1ccc(NC(=O)C/C(C)=N/NC(=O)COc2cc(C)c(Br)cc2Br)cc1 [MLS000912562-01]
2. C/C(=N\NC(=O)c1cc(C)oc1C)c1ccc2ccccc2c1 [MLS000912258-01]
3. CC(C)c1ccc(NC(=O)CN2C(=O)c3ccccc3S2(=O)=O)cc1 [MLS001229477-01]
4. c1ccc(-c2nn[nH]n2)nc1 [MLS000767397-01]

result:
1: 1.0302; 2: 1.1074; 3: 1.0674; 4: 0.8485

----------
Test system: β-galactosidase in CMV-LacZ C2C12 myotubes
ASSAY REMARKS: CMV-LacZ secondary screen in C2C12 myotubes (β-Gal stabilizing assay)
Assay type: cell-based, mouse
EXPERIMENTAL CONDITIONS: 10 uM; C2C12 CMV-LacZ myotubes; fold relative to DMSO
REPORTED ENDPOINT: CMV-LACZ in Myotubes, signal relative to DMSO
Numbers only.

These recorded examples may help you get a feel for the data.
[[record]]
compound = "O=C1CCC(C(=O)N2CCSCC2)CN1Cc1ccc(Cl)cc1 (stereo not shown)"
experimental_result = 1.1178

[[record]]
compound = "COc1ccc(NC(=O)c2cccc(N3C(=O)c4ccc(C(=O)Nc5ccc(OC)c(O)c5)cc4C3=O)c2)cc1O"
experimental_result = 1.016

[[record]]
compound = "CCOc1ccc(-n2c(C)c(C(=O)O)c3cc(OC)ccc32)cc1"
experimental_result = 0.9459


Would you kindly look at the next entry?
query: Find CMV-LACZ in Myotubes, signal relative to DMSO (β-galactosidase in CMV-LacZ C2C12 myotubes) for the entry CCc1nc2ccccc2c(C(=O)NCc2ccccc2)c1C
result: 1.2248

----------
Tested on: α7 integrin (LacZ reporter in α7βgal+/− myoblasts)
ASSAY REMARKS: Myoblast α7+/LacZ integrin FDG assay (Burkin assay in myoblasts, 96-well)
Type: cell-based, mouse
EXPERIMENTAL CONDITIONS: 10 uM; α7+/LacZ myoblasts, 96-well
I'd appreciate it if you marked entries Fulfilled when Burkin Assay in Myoblasts, value relative to DMSO is lower than 1 and Not fulfilled when it is not.

Example entries and their recorded answers appear below.
[[record]]
compound = "CCc1ccc(Sc2cc(C(=O)NCCN3CCOCC3)c3ccccc3n2)cc1"
classification = "Not fulfilled"

[[record]]
compound = "OC1(c2ccccc2)C/C(=N\\n2cnnc2)C=C1c1ccccc1 (stereo not shown)"
classification = "Fulfilled"

[[record]]
compound = "CC(C)(CC(=O)O)CC(=O)N1CCCN(c2nccc(C(F)(F)F)n2)CC1"
classification = "Fulfilled"

[[record]]
compound = "Cc1nnc(NC(=O)CSc2nnc(CCNC(=O)c3ccccc3F)n2C)s1"
classification = "Not fulfilled"

[[record]]
compound = "S=c1[nH]nc(Cn2cnc3ccccc32)n1-c1ccccc1"
classification = "Fulfilled"

[[record]]
compound = "COc1cc(NC(=O)CN(C)S(=O)(=O)c2ccc3c(c2)CC(C)N3C(C)=O)cc(OC)c1OC (stereo not shown)"
classification = "Fulfilled"

[[record]]
compound = "CN(C)S(=O)(=O)c1cccc(C(=O)Nc2ccc3c(c2)CCC3)c1"
classification = "Not fulfilled"

[[record]]
compound = "CNC(=S)N1CCC(NC(=O)C(Cc2ccc(F)cc2)NC(C)=O)CC1 (stereo not shown)"
classification = "Not fulfilled"

[[record]]
compound = "CCCC(=O)Nc1ccccc1NC(=O)c1ccc(OCC)cc1"
classification = "Fulfilled"

[[record]]
compound = "COc1ccccc1N(C(=O)CNC(=O)c1ccco1)C(C(=O)NC1CCCCC1)c1ccncc1 (stereo not shown)"
classification = "Fulfilled"


query: Report whether reported Burkin Assay in Myoblasts, value relative to DMSO is lower than 1 (strictly) for COc1cccc(N2C(=O)CC(N3CCc4ccccc4C3)C2=O)c1 (stereo not shown)
result: Not fulfilled

query: Report whether reported Burkin Assay in Myoblasts, value relative to DMSO is lower than 1 (strictly) for CCc1c(C2(O)CCCCC2)[nH]c2ncccc12
result: Fulfilled

query: Report whether reported Burkin Assay in Myoblasts, value relative to DMSO is lower than 1 (strictly) for Cc1ccc(N(CCC(=O)O)S(=O)(=O)c2cccc(C(F)(F)F)c2)cc1
result: Not fulfilled

----------
Tested on: α7 integrin (LacZ reporter in α7LacZ+/− myoblasts)
ASSAY REMARKS: qHTS of the LOPAC library and MLSMR (online screen, α7LacZ+/− myoblasts)
EXPERIMENTAL CONDITIONS: Mus musculus, Myoblast, 48 h, read-out: Fit Infinite Activity [%]
REPORTED ENDPOINT: Emax (%)
One number for each entry, in %.

These recorded examples may help you get a feel for the data.
[[record]]
compound = "O=C(CN1CCOCC1)NCc1cc([N+](=O)[O-])ccc1O [Compound 166]"
experimental_result = 104

[[record]]
compound = "COc1cccc(C(=O)NCC(=O)N2CCC3(CC2)NCCc2[nH]cnc23)c1 [Compound 93]"
experimental_result = 114

[[record]]
compound = "CCc1c(C2(O)CCCCC2)[nH]c2ncccc12 [Compound 135]"
experimental_result = 61.8

[[record]]
compound = "COc1ccc(N2CCCC2)c(NC(=O)c2ccc([N+](=O)[O-])o2)c1 [Compound 46]"
experimental_result = 196


query: Find Emax (α7 integrin (LacZ reporter in α7LacZ+/− myoblasts)) for the entry CNc1nnc(SCC(=O)c2cc(C)n(C3CC3)c2C)s1 [Compound 68]
result: 222

----------
Tested on: β-galactosidase in CMV-LacZ C2C12 myoblasts
ASSAY REMARKS: CMV-LacZ secondary screen in C2C12 myoblasts (β-Gal stabilizing assay)
Format: cell-based, mouse
EXPERIMENTAL CONDITIONS: 0.5 uM; CMV-LacZ C2C12 myoblasts
I'd appreciate it if you marked entries TRUE when CMV-LACZ in Myoblasts (β-galactosidase activity relative to DMSO) is lower than 0.9 and FALSE when it is not.

Example entries and their recorded answers appear below.
[[record]]
compound = "Cn1ccc(C(=O)Nc2cccnc2Cl)n1"
classification = "FALSE"

[[record]]
compound = "CCCN(C(=O)c1ccc(S(=O)(=O)N2CCCC2)cc1)C1CCS(=O)(=O)C1 (stereo not drawn)"
classification = "FALSE"

[[record]]
compound = "CCN(C(=O)c1ccc(S(=O)(=O)N(C)C)cc1)C(C)C(=O)Nc1ccc(C)cc1 (stereo not drawn)"
classification = "TRUE"


Please find the next compound below.
query: Report whether reported CMV-LACZ in Myoblasts (β-galactosidase activity relative to DMSO) is lower than 0.9 (strictly) for CCCCN(CC)Cc1ccc(CNC(=S)Nc2ccccc2F)o1
result: TRUE

----------
Tested on: β-galactosidase in CMV-LacZ C2C12 myotubes
ASSAY REMARKS: CMV-LacZ secondary screen in C2C12 myotubes (β-Gal stabilizing assay)
Assay type: cell-based, mouse
EXPERIMENTAL CONDITIONS: 10 uM; C2C12 CMV-LacZ myotubes; fold relative to DMSO
I'd appreciate it if you marked entries Condition met when CMV-LACZ in Myotubes, signal relative to DMSO is lower than 1 and Condition not met when it is not.

[[record]]
compound = "CCNC(=O)C(=O)Nc1cc2c3c(c1)CCN3C(=O)CC2"
subject_of_test = "β-galactosidase in CMV-LacZ C2C12 myotubes"
classification = "Condition not met"


Please find the next compound below.
query: Report whether reported CMV-LACZ in Myotubes, signal relative to DMSO is lower than 1 (strictly) for CCCC(=O)OCC(=O)c1[nH]c(C)c(C(C)=O)c1C
result: Condition met

----------
Test system: β-galactosidase in CMV-LacZ C2C12 myoblasts
ASSAY REMARKS: CMV-LacZ secondary screen in C2C12 myoblasts (β-Gal stabilizing assay)
Assay type: cell-based, mouse
EXPERIMENTAL CONDITIONS: 1 uM; CMV-LacZ C2C12 myoblasts
Source text: In order to determine compounds that acted to stabilize β-gal in myogenic cells, a CMV-LacZ C2C12 cell line was used in a secondary screen. The EGFP gene from the pEGFP (Clontech) vector was replaced by LACZ PCR product with digests of the vector/PCR product performed using EcoRI (NEB) and NotI (NEB) and ligated using T4 DNA Ligase (NEB) following standard procedures to produce the CMV-LACZ vector. […]
Hi there, I'd appreciate the recorded CMV-LACZ in Myoblasts (β-galactosidase activity relative to DMSO) for every entry that follows.
One number for each entry.

[[record]]
compound = "O=C(Cn1nc(-c2ccc(Cl)cc2)ccc1=O)N1CCC2(CC1)OCCO2"
subject_of_test = "β-galactosidase in CMV-LacZ C2C12 myoblasts"
experimental_result = 1.0252

[[record]]
compound = "CCCS(=O)(=O)c1nc(S(=O)(=O)c2ccc(C)cc2)c(N2CCCC2)s1"
subject_of_test = "β-galactosidase in CMV-LacZ C2C12 myoblasts"
experimental_result = 1.0049

[[record]]
compound = "Cc1cccc(C)c1NCC(=O)N1CCN(Cc2ccccc2)CC1.Cl"
subject_of_test = "β-galactosidase in CMV-LacZ C2C12 myoblasts"
experimental_result = 1.4588

[[record]]
compound = "O=C(O)CC1(c2ccccc2)C(=O)c2ccccc2C1=O"
subject_of_test = "β-galactosidase in CMV-LacZ C2C12 myoblasts"
experimental_result = 1.0529

[[record]]
compound = "CCCCN1CC(=O)N2Cc3[nH]c4ccccc4c3C[C@H]2C1=O"
subject_of_test = "β-galactosidase in CMV-LacZ C2C12 myoblasts"
experimental_result = 0.9796

[[record]]
compound = "COc1cc(NC(=O)OCc2ccccc2)c2ncccc2c1"
subject_of_test = "β-galactosidase in CMV-LacZ C2C12 myoblasts"
experimental_result = 0.6763

[[record]]
compound = "COc1ccc(C(=O)Cn2nnc(-c3ccccc3NC(=O)c3ccco3)n2)cc1"
subject_of_test = "β-galactosidase in CMV-LacZ C2C12 myoblasts"
experimental_result = 0.9000

[[record]]
compound = "CN(CCC1CCCCO1)C(=O)CCc1nnc(CCCCc2ccccc2)o1 (stereo not drawn)"
subject_of_test = "β-galactosidase in CMV-LacZ C2C12 myoblasts"
experimental_result = 1.1646


Provide each entry's CMV-LACZ in Myoblasts (β-galactosidase activity relative to DMSO) from the list below.
1. CC(=O)C1=C(C)Nc2ncnn2C1c1ccc(C)cc1 (stereo not drawn)
2. COc1ccc(OC)c(NC(=O)CN2CCC(NC(=O)c3ccccc3C)CC2)c1
3. CCOc1cc(C)c(S(=O)(=O)N2CCCCC2)cc1C
4. Cc1cccc(NCC(=O)N/N=C\c2ccccn2)c1
5. Nc1ncnc(NCc2ccccc2)c1[N+](=O)[O-]
6. Cl.O=C1C2CCCN2C(=O)N1CCCN1CCN(c2cccc(Br)c2)CC1 (stereo not drawn)
7. CCOC(=O)c1cc(-c2cccs2)nc2c1c(C)nn2-c1ccccn1
8. CCOC(=O)c1sc(=N)n(-c2ccc(OC)cc2)c1C

result:
1.2563
1.1291
1.1104
0.9325
0.9717
0.9288
0.8858
0.9421

Provide each entry's CMV-LACZ in Myoblasts (β-galactosidase activity relative to DMSO) from the list below.
1. Cc1[nH]c2ccc(F)cc2c1CCN(Cc1ccco1)C(=S)NC(C)(C)C
2. CC(C)CN(C(=O)c1cccc(Cl)c1)c1c(N)n(Cc2ccccc2)c(=O)[nH]c1=O
3. Fc1ccc(-c2ccnc3nc(N4CCN(c5ccccc5)CC4)nn23)cc1

result:
[0.7960, 0.8738, 1.1373]

Provide each entry's CMV-LACZ in Myoblasts (β-galactosidase activity relative to DMSO) from the list below.
1. COc1ccc(Cl)cc1NC(=O)c1cc(-c2cc(C)ccc2O)n[nH]1
2. Cc1noc(C)c1COc1ccc(C(=O)NCCc2ccccn2)cc1
3. CCN(CC(=O)NCc1cccs1)C(=O)COc1ccc(C(N)=O)cc1
4. CC(C)(C)c1ccc(C(=O)OCC(=O)Nc2sc3c(c2C#N)CCC3)cc1
5. Cc1cc([N+](=O)[O-])ccc1NC(=O)C(C)N1CCN(c2ccccn2)CC1 (stereo not drawn)
6. CCCC(=O)OCC(=O)c1[nH]c(C)c(C(C)=O)c1C
7. c1ccc(-c2cn3c4c(sc3n2)CCCC4)cc1
8. Cc1cc(OCC(=O)NC(C)C)ccc1Cl

result:
1. 0.9994
2. 1.1702
3. 1.0317
4. 0.7638
5. 0.9520
6. 0.8108
7. 0.9021
8. 1.1492

Provide each entry's CMV-LACZ in Myoblasts (β-galactosidase activity relative to DMSO) from the list below.
1. OC(c1nc2ccc(F)cc2[nH]1)C(O)c1nc2ccc(F)cc2[nH]1 (stereo not drawn)
2. CC(=O)Nc1ccc(-n2c(C)nc(=O)c(-c3ccccc3)c2C)cc1
3. COc1cccc(CN2CCN(Cc3ccco3)CC2)c1.O=C(O)C(=O)O
4. CCCCN(CC)Cc1ccc(CNC(=S)Nc2ccccc2F)o1

result:
1. 0.8783
2. 0.7008
3. 0.7347
4. 0.7409

Measured values drawn from patent US9980943B2 for this set.
